Overview of recorded IC50 for various compounds
STUDY SYSTEM: human HER2 (23-652) (Homo sapiens, UniProt P04626)
EXPERIMENT SUMMARY: TR-FRET competition assay for peptide potency, human HER2
Type: binding
Parameters: towards human HER2 (23-652) and mouse HER2 (23-653); made in house; host or cells: mammalian cells
MEASUREMENT PARAMETERS: read-out: huHER2 TR-FRET IC50
Where a name gives a salt, the structure may show the parent alone. Starred links: 1 amine or outer side, 2 acyl side, 3 side chain; linkers in the order of their positions; H or OH if unused. Positions of bridges follow the written chain, without caps; N, C: chain ends. Non-standard residues stand in square brackets, D forms with d. Residues, ends and D or L forms follow the SMILES beside them. Trp(5-OH) = N[C@@H](Cc1c[nH]c2ccc(O)cc12)C(=O)O; NMePhe(4-F) = CN[C@@H](Cc1ccc(F)cc1)C(=O)O; X1 = O=C([C@H](Cc1cnn2ccccc12)N[*:1])[*:2]; NMehPhe = CN[C@@H](CCc1ccccc1)C(=O)O; Glutaryl = O=C(CCCC(=O)[*:2])[*:1]; Aad = N[C@@H](CCCC(=O)O)C(=O)O; Gly(cPr) = N[C@H](C(=O)O)C1CC1; NMehCys = CN[C@@H](CCS)C(=O)O; Ahp(2) = CCCCC[C@H](N)C(=O)O; NMeK = CN[C@@H](CCCCN)C(=O)O; NMeDap = CN[C@@H](CN)C(=O)O; NMeC = CN[C@@H](CS)C(=O)O; NMeS = CN[C@@H](CO)C(=O)O; hCys = N[C@@H](CCS)C(=O)O
QUANTITY NAME: IC50 (nM)

>  <COMPOUND>
CC(=O)N[C@H]1CCC(=O)NC[C@@H](C(=O)N(C)[C@@H](Cc2ccc(F)cc2)C(N)=O)N(C)C(=O)[C@H](C2CC2)NC(=O)[C@H](Cc2cnn3ccccc23)NC(=O)[C@H](Cc2c[nH]c3ccc(O)cc23)NC(=O)[C@H](CO)N(C)C(=O)[C@H](CCc2ccccc2)N(C)C(=O)[C@H](CO)NC(=O)[C@H](Cc2ccc(O)cc2)NC1=O [Example A21] (Ac-EYS[NMehPhe][NMeS][Trp(5-OH)][X1][Gly(cPr)][NMeDap][NMePhe(4-F)]-NH2; lactam 1-9)

>  <STUDY SYSTEM>
human HER2 (23-652) (Homo sapiens, UniProt P04626)

>  <QUALIFIER SIGN>
>

>  <OBS VALUE>
1000

$$$$
>  <COMPOUND>
CCCCC[C@@H]1NC(=O)[C@H](CCCCNC(C)=O)N(C)C(=O)[C@H](CCc2ccccc2)N(C)C(=O)[C@H](CO)NC(=O)[C@H](Cc2ccc(O)cc2)NC(=O)[C@@H](NC(C)=O)CCCC(=O)NC[C@@H](C(=O)N(C)[C@@H](Cc2ccc(F)cc2)C(N)=O)N(C)C(=O)[C@H](C2CC2)NC(=O)[C@H](Cc2c[nH]c3ccccc23)NC1=O [Example A11] (Ac-[Aad]YS[NMehPhe][NMeK](Ac)[Ahp(2)]W[Gly(cPr)][NMeDap][NMePhe(4-F)]-NH2; lactam 1-9)

>  <STUDY SYSTEM>
human HER2 (23-652) (Homo sapiens, UniProt P04626)

>  <QUALIFIER SIGN>
=

>  <OBS VALUE>
966

$$$$
>  <COMPOUND>
CN1C(=O)[C@H](CO)NC(=O)[C@H](Cc2ccc(O)cc2)NC(=O)[C@@H](N)CCSSC[C@@H](C(=O)N(C)[C@@H](Cc2ccc(F)cc2)C(N)=O)N(C)C(=O)[C@H](C2CC2)NC(=O)[C@H](Cc2c[nH]c3ccccc23)NC(=O)[C@H](Cc2c[nH]c3ccc(O)cc23)NC(=O)[C@H](CO)N(C)C(=O)[C@@H]1CCc1ccccc1 [Example A57, TFA salt] (H-[hCys]YS[NMehPhe][NMeS][Trp(5-OH)]W[Gly(cPr)][NMeC][NMePhe(4-F)]-NH2; disulfide 1-9)

>  <STUDY SYSTEM>
human HER2 (23-652) (Homo sapiens, UniProt P04626)

>  <QUALIFIER SIGN>
>

>  <OBS VALUE>
1000

$$$$
>  <COMPOUND>
CC(=O)NCCCC[C@H]1C(=O)N[C@@H](Cc2c[nH]c3ccc(O)cc23)C(=O)N[C@@H](Cc2c[nH]c3ccccc23)C(=O)N[C@@H](C2CC2)C(=O)N(C)[C@H](C(=O)N(C)[C@@H](Cc2ccc(F)cc2)C(N)=O)CCSSC[C@H](N)C(=O)N[C@@H](Cc2ccc(O)cc2)C(=O)N[C@@H](CO)C(=O)N(C)[C@@H](CCc2ccccc2)C(=O)N1C [Example A56, TFA salt] (H-CYS[NMehPhe][NMeK](Ac)[Trp(5-OH)]W[Gly(cPr)][NMehCys][NMePhe(4-F)]-NH2; disulfide 1-9)

>  <STUDY SYSTEM>
human HER2 (23-652) (Homo sapiens, UniProt P04626)

>  <QUALIFIER SIGN>
=

>  <OBS VALUE>
229

$$$$
>  <COMPOUND>
CC(=O)NCCCC[C@H]1C(=O)N[C@@H](Cc2c[nH]c3ccc(O)cc23)C(=O)N[C@@H](Cc2c[nH]c3ccccc23)C(=O)N[C@@H](C2CC2)C(=O)N(C)[C@H](C(=O)N(C)[C@@H](Cc2ccc(F)cc2)C(=O)N[C@@H](CCCCN)C(N)=O)CNC(=O)CCC[C@H](NC(C)=O)C(=O)N[C@H](Cc2ccc(O)cc2)C(=O)N[C@H](CO)C(=O)N(C)[C@@H](CCc2ccccc2)C(=O)N1C [Example A48, TFA salt]

>  <STUDY SYSTEM>
human HER2 (23-652) (Homo sapiens, UniProt P04626)

>  <QUALIFIER SIGN>
=

>  <OBS VALUE>
8300

$$$$
>  <COMPOUND>
CC(=O)NCCCC[C@H]1C(=O)N[C@@H](Cc2c[nH]c3ccc(O)cc23)C(=O)N[C@@H](Cc2c[nH]c3ccccc23)C(=O)N[C@@H](C2CC2)C(=O)N(C)[C@H](C(=O)N(C)[C@@H](Cc2ccc(F)cc2)C(N)=O)CNC(=O)CCCC(=O)N[C@@H](Cc2ccc(O)cc2)C(=O)N[C@@H](CO)C(=O)N(C)[C@@H](CCc2ccccc2)C(=O)N1C [Example A7] (YS[NMehPhe][NMeK](Ac)[Trp(5-OH)]W[Gly(cPr)][NMeDap][NMePhe(4-F)]-NH2; linker N-8 via Glutaryl)

>  <STUDY SYSTEM>
human HER2 (23-652) (Homo sapiens, UniProt P04626)

>  <QUALIFIER SIGN>
=

>  <OBS VALUE>
18

$$$$
>  <COMPOUND>
COCCOCCOCCOCCOCCOCCOCCOCCOCCOCCOCCOCCC(=O)N[C@H]1CCCC(=O)NC[C@@H](C(=O)N(C)[C@@H](Cc2ccc(F)cc2)C(=O)N[C@@H](CCCCNC(=O)c2ccc(F)nc2)C(N)=O)N(C)C(=O)[C@H](C2CC2)NC(=O)[C@H](Cc2c[nH]c3ccccc23)NC(=O)[C@H](Cc2c[nH]c3ccc(O)cc23)NC(=O)[C@H](CCCCNC(C)=O)N(C)C(=O)[C@H](CCc2ccccc2)N(C)C(=O)[C@H](CO)NC(=O)[C@H](Cc2ccc(O)cc2)NC1=O [Example F3]

>  <STUDY SYSTEM>
human HER2 (23-652) (Homo sapiens, UniProt P04626)

>  <QUALIFIER SIGN>
<

>  <OBS VALUE>
0.1

$$$$
>  <COMPOUND>
CC(=O)NCCCC[C@H]1C(=O)N[C@@H](Cc2c[nH]c3ccc(O)cc23)C(=O)N[C@H](Cc2c[nH]c3ccccc23)C(=O)N[C@@H](C2CC2)C(=O)N(C)[C@H](C(=O)N(C)[C@@H](Cc2ccc(F)cc2)C(=O)N[C@@H](CCCCNC(=O)CN2CCN(CC(=O)O)CCN(CC(=O)O)CCN(CC(=O)O)CC2)C(N)=O)CNC(=O)CCC[C@H](NC(C)=O)C(=O)N[C@@H](Cc2ccc(O)cc2)C(=O)N[C@@H](CO)C(=O)N(C)[C@@H](CCc2ccccc2)C(=O)N1C [Example B9]

>  <STUDY SYSTEM>
human HER2 (23-652) (Homo sapiens, UniProt P04626)

>  <QUALIFIER SIGN>
>

>  <OBS VALUE>
1000

$$$$
>  <COMPOUND>
CC(=O)NCCCC[C@H]1C(=O)N[C@@H](Cc2c[nH]c3ccc(O)cc23)C(=O)N[C@@H](Cc2c[nH]c3ccccc23)C(=O)N[C@@H](C2CC2)C(=O)N(C)[C@H](C(=O)N(C)[C@@H](Cc2ccc(F)cc2)C(=O)N[C@@H](CCCCNC(=O)c2ccc(F)nc2)C(N)=O)CNC(=O)CCC[C@H](NC(C)=O)C(=O)N[C@@H](Cc2ccc(O)cc2)C(=O)N[C@@H](CO)C(=O)N(C)[C@@H](CCc2ccccc2)C(=O)N1C [Example F1]

>  <STUDY SYSTEM>
human HER2 (23-652) (Homo sapiens, UniProt P04626)

>  <QUALIFIER SIGN>
<

>  <OBS VALUE>
0.1

$$$$
